# TESTED_ON: Recombinant ROCK1 (Homo sapiens (Human))
# Sequence (Q13464 whole entry): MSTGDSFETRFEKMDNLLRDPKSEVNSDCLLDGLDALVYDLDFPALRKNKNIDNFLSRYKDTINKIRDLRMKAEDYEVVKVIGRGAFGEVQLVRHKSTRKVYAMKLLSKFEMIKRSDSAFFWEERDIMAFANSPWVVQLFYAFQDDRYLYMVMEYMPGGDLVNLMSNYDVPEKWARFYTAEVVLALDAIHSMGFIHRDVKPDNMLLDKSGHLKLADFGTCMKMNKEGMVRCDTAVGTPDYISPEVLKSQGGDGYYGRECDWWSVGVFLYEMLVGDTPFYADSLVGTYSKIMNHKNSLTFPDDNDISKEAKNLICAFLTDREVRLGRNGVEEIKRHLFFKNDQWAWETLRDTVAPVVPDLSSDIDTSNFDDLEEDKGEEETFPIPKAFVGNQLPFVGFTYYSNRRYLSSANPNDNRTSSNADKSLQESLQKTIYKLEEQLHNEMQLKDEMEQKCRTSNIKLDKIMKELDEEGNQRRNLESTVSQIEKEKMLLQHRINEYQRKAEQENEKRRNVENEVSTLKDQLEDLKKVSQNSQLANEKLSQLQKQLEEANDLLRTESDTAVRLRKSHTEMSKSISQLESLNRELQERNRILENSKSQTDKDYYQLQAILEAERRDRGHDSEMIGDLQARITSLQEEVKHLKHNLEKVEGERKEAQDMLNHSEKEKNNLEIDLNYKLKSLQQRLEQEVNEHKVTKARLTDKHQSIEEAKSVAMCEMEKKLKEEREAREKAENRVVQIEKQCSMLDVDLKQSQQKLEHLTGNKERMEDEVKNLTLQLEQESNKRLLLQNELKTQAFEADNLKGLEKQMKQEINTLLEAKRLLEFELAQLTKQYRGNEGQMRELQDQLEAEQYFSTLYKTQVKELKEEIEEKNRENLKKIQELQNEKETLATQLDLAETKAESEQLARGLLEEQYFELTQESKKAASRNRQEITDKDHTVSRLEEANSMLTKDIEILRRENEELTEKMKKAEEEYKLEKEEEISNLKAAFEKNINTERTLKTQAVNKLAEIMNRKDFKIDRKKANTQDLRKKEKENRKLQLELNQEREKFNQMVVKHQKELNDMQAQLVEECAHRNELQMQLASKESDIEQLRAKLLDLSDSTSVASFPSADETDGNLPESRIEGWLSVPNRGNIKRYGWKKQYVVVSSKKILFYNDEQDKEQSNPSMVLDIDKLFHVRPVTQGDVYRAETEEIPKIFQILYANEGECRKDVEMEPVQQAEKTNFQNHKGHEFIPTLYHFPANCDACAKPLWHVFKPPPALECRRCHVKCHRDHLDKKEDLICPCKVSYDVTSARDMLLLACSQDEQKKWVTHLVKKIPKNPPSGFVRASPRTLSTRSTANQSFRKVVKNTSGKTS
# METHOD_NOTES: Lance Ultra Kinase Assay, ROCK1 inhibition
# ASSAY_SETUP: ATP at Km, 30 min pre-incubation, 1 h reaction
pIC50: −log10 of the molar value.
READOUT_NAME: pIC50

Here is how some compounds turned out for pIC50.
>  <COMPOUND>
NCC(C(=O)Nc1cccc2c(-c3cn[nH]c3)c[nH]c12)c1ccc(F)cc1 (racemic)

>  <RECORDED_NUMBER>
9.09

$$$$
>  <COMPOUND>
NCC(C(=O)Nc1cccc2c(-c3cn[nH]c3)c[nH]c12)c1ccc(CO)nc1 (single isomer, unassigned) [Example 61]

>  <RECORDED_NUMBER>
7.59

$$$$

I = NCCN1CCN(C(C(=O)Nc2cccc3c(-c4cn[nH]c4)c[nH]c23)c2ccccc2)CC1 (racemic)
II = NCC(C(=O)Nc1cccc2c(-c3cn[nH]c3)c[nH]c12)c1ccc(C(N)=O)cc1 (single isomer, unassigned) [Example 113]
Request: Which value of pIC50 is smaller, the one for I or the one for II ? Answer with the label corresponding to your selection.
Result: II

P = N[C@H](C(=O)Nc1cccc2c(-c3cn[nH]c3)c[nH]c12)c1cccnc1 (single isomer, unassigned)
Q = NCCC(NC(=O)c1cccc2c(-c3cn[nH]c3)c[nH]c12)c1ccccc1 (racemic)
R = O=C(Nc1cccc2c(-c3cn[nH]c3)c[nH]c12)[C@@H]1CCCN1
Request: Rank by pIC50 (largest to smallest). Would you mind listing the labels in the order asked for?
Result: P, Q, R

I = CN1CCN(CC(C(=O)Nc2cccc3c(-c4cn[nH]c4)c[nH]c23)c2ccccc2)CC1 (racemic) [Example 37]
II = CN1CCN(C(C(=O)Nc2cccc3c(-c4cn[nH]c4)c[nH]c23)c2ccccc2)CC1 (single isomer, unassigned) [Example 47]
Request: Which value of pIC50 is smaller, the one for I or the one for II ? Answer with the label corresponding to your selection.
Result: II
